The molecules listed here are annotated with their EC50.
Target: Heat shock factor protein 1 (Mus musculus, UniProt P38532)
Sequence (P38532 whole entry): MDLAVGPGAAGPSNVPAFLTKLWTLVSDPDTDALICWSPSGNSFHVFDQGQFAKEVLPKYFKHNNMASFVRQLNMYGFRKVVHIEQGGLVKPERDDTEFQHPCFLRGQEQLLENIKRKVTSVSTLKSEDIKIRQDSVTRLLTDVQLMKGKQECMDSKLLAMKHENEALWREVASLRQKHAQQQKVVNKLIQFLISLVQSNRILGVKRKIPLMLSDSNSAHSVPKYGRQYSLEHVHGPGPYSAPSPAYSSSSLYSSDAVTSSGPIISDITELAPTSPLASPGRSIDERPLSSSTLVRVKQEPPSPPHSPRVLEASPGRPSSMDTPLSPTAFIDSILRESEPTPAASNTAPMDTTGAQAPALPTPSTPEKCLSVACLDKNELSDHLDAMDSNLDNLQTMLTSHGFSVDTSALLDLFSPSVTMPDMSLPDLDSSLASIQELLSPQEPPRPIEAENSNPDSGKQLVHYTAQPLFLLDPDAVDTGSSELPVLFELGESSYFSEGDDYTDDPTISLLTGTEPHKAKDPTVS
Assay: inhibition of MG132-induced HSE-luciferase signal, confirmation, cell-based, NIH3T3, luminescence, dose retest (AID 2382);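 also: NIH3T3 fibroblasts with HSF1-driven luciferase reporter stressed by proteasome inhibitor MG132; luminescence from HSF1-driven luciferase expression after 8 hours of MG132 stress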
Type: functional
Calls of active or inactive are those of the source. Rule as the data show it: actives have a measured EC50 and inactives only a lower limit.

- structure.string: "COc1cc(NC(=O)N[C@@H](Cc2c[nH]c3ccccc23)C(=O)O)c(C(=O)O)cc1OC"
  assay.value: "> 195 µM (not active)"
- structure.string: "CCc1nnc(N/N=C\\c2ccc(OC(C)=O)c(OC)c2)n1N"
  assay.value: "> 195 µM (not active)"
- structure.string: "Cc1cc(Cl)ccc1OCC(=O)Nc1nc(-c2cccnc2)cs1"
  assay.value: "> 195 µM (not active)"
- structure.string: "CCOc1cc(/C=C\\[N+](=O)[O-])ccc1OCC(=O)Nc1ccccc1C"
  assay.value: "5.09 µM (active)"
- structure.string: "Cc1cc(C)c(S(=O)(=O)N/N=C/c2ccc3c(c2)OCO3)c(C)c1"
  assay.value: "> 195 µM (not active)"

Could you share what EC50 was measured for CCCNC(=O)c1cccc(COCC(F)(F)F)c1 , tested on Heat shock factor protein 1 (Mus musculus, UniProt P38532)? > 195 µM (not active)
